Hello, the source for this data is patent US20130072519A1, in case you need it.

Measured Compound remaining (%) at 4 min by item
# test-summary: Human intestinal microsomal stability
# Type: in vitro ADME
# applied-conditions: Human Intestinal Microsomes 0.76 mg/mL, 1 μM compound, 37° C., pH 7.4, 4 min
Give a bare numeral; the unit % is implied.

# compound, Compound remaining (%) at 4 min
rows = [
    ("CCOC(=O)C1(COC(=O)Cc2ccc(NC(=O)c3ccc(C)cc3-c3ccc(C(F)(F)F)cc3)c(C(=O)N(C)C)c2)CCc2cccnc21 (single isomer, unassigned) [Example 59]", 102),
    ("CCOC(=O)[C@]1(COC(=O)Cc2ccc(NC(=O)c3ccccc3-c3ccc(OC(C)C)cc3)c(C(=O)N(C)C)c2)c2ccccc2C(=O)N1C [Example 50]", 100),
    ("CCOC(=O)[C@]1(COC(=O)Cc2ccc(NC(=O)c3cccc(OC)c3-c3ccc(C(F)(F)F)cc3)c(C(=O)N(C)C)c2)c2ccccc2C(=O)N1C [Example 71]", 125),
    ("CCOC(=O)C1(COC(=O)Cc2ccc(NC(=O)c3ccccc3-c3ccc(OC(C)C)cc3)c(C(=O)N(C)C)c2)CCc2cccnc21 (single isomer, unassigned) [Example 60]", 107),
]

// switching to the query compound
Ask: GET /values?readout=Compound remaining (%) at 4 min&item= CCOC(=O)[C@]1(COC(=O)Cc2ccc(NC(=O)c3cccc(C)c3-c3ccc(C(F)(F)F)cc3)c(C(=O)N(C)C)c2)c2ccccc2C(=O)N1C [Example 49]
Reply: 100

* * *

Compound remaining (%) at 4 min listing for selected molecules.
# test-summary: Human liver microsomal stability
# Type: in vitro ADME
# applied-conditions: Human Liver Microsomes 0.76 mg/mL, 1 μM compound, 37° C., pH 7.4, 4 min

# count of solved cases: 3
# molecule, Compound remaining (%) at 4 min
measured = [
    ("CCOC(=O)[C@]1(COC(=O)Cc2ccc(NC(=O)c3cccc(OC)c3-c3ccc(C(F)(F)F)cc3)c(C(=O)N(C)C)c2)c2ccccc2C(=O)N1C", "45%"),
    ("CCOC(=O)C1(COC(=O)Cc2ccc(NC(=O)c3cccc(OC)c3-c3ccc(C(F)(F)F)cc3)c(C(=O)N(C)C)c2)CCc2cccnc21 (single isomer, unassigned)", "65%"),
    ("CCOC(=O)[C@]1(COC(=O)Cc2ccc(NC(=O)c3ccc(C)cc3-c3ccc(OC(C)C)cc3)c(C(=O)N(C)C)c2)c2ccccc2C(=O)N1C", "71%"),
]

Switching to the query record.
Ask: Request the reported Compound remaining (%) at 4 min associated with CCOC(=O)C1(COC(=O)Cc2ccc(NC(=O)c3ccccc3-c3ccc(OC(C)C)cc3)c(C(=O)N(C)C)c2)CCc2cccnc21 (single isomer, unassigned)
Reply: 110%

* * *

# test-summary: Human liver microsomal stability
# Type: in vitro ADME
# applied-conditions: Human Liver Microsomes 0.76 mg/mL, 1 μM compound, 37° C., pH 7.4, 4 min
Measured Compound remaining (%) at 4 min by item

# compound, Compound remaining (%) at 4 min
records = [
    ("CCOC(=O)[C@]1(COC(=O)Cc2ccc(NC(=O)c3ccccc3-c3ccc(OC(C)C)cc3)c(C(=O)N(C)C)c2)c2ccccc2C(=O)N1C [Example 50]", "48%"),
]

Ask: What Compound remaining (%) at 4 min value was documented for this compound, CCOC(=O)C1(COC(=O)Cc2ccc(NC(=O)c3ccc(C)cc3-c3ccc(C(F)(F)F)cc3)c(C(=O)N(C)C)c2)c2ccccc2C(=O)N1C (single isomer, unassigned) [Example 56] ?
Reply: 38%

Ask: Tell me the measured Compound remaining (%) at 4 min of CCOC(=O)[C@]1(COC(=O)Cc2ccc(NC(=O)c3cccc(C)c3-c3ccc(C(F)(F)F)cc3)c(C(=O)N(C)C)c2)c2ccccc2C(=O)N1C [Example 49] , please.
Reply: 42%

Ask: Reported Compound remaining (%) at 4 min for CCOC(=O)[C@]1(COC(=O)Cc2ccc(NC(=O)c3ccc(OC)cc3-c3ccc(C(F)(F)F)cc3)c(C(=O)N(C)C)c2)c2ccccc2C(=O)N1C [Example 70] : what is it?
Reply: 61%

Ask: Given the entry CCOC(=O)C1(COC(=O)Cc2ccc(NC(=O)c3ccc(C)cc3-c3ccc(C(F)(F)F)cc3)c(C(=O)N(C)C)c2)CCc2cccnc21 (single isomer, unassigned) [Example 59] , report its measured Compound remaining (%) at 4 min.
Reply: 22%
